test: Compound plasma exposure in mouse (CD-1), daily oral dosing, same table as the cyno DRF study; assay type: in vivo; settings: CD-1, mouse, 100 mg/kg, 100 mg/kg PO, 1 day of dosing
Please provide measured AUC for the entries that follow.
Give bare numbers, in µM·h.

CN1CCN([C@H]2CCCN(c3cnc(C(N)=O)c(Nc4ccc(C5CCN(CC6CCN(c7ccc(C(=O)NC8CCC(=O)NC8=O)nc7)CC6)CC5)cc4)n3)C2)C1=O (stereo partly drawn)	51.3

I'm hoping you can list AUC for every compound here, please.
1. CN1CCN([C@@H]2CCCN(c3cnc(C(N)=O)c(Nc4ccc(C5CCN(C[C@H]6CCN(c7ccc8c(c7)C(=O)N(C7CCC(=O)NC7=O)C8=O)C6)CC5)cc4)n3)C2)C1=O (stereo partly drawn)
2. NC(=O)c1ncc(N2CCCCC2)nc1Nc1ccc(C2CCN(C[C@@H]3CCN(c4ccc5c(c4)C(=O)N(C4CCC(=O)NC4=O)C5=O)C3)CC2)cc1 (stereo partly drawn)

Result:
1: 4.15; 2: 27.7

These entries and their values trace back to patent US12600732B2.
